# EXPERIMENT: soluble fraction after stress (log2 fold change); higher = more stays soluble; pooled small domains, quantitative proteomics
# TEST_SETTINGS: stress: 50 degC
QUANTITY: soluble fraction (log2)

>>> value_reported("HMFELVKISENIPIRDLAETLKTTPNEIIKELMVFGVLANINQTLNFDLASKVADKLGFEVELL")
-0.246
>>> value_reported("HMAGTDLSERESEIAMLLLKGYPYKLIASRLYISESTVKSHVQNIYGKLGIHSRTELIEQFSAS")
-0.558
>>> value_reported("HMNKNQGVTTTNLNFRKSASTSSLVLYTIPKNTTLDILDKLPSGWYKVKYKGLTGYVSGSYV")
-1.37
>>> value_reported("HMSLREKNKARTRTAILNAARDLAKQGQWDAITTRQIADAAGVSYQTLYNYYPSKASILVEMLL")
-1.45

====

# EXPERIMENT: soluble fraction after stress (log2 fold change); higher = more stays soluble; pooled small domains, quantitative proteomics
# TEST_SETTINGS: stress: 50 degC
QUANTITY: soluble fraction (log2)

>>> value_reported("HMGEVEVPDLVGIEAIQAKTLLFNSDFLIKEFYDYDPTQPIGVVIRQAPEAGTTQTIGDSVTITINRA")
-0.116
>>> value_reported("HMKIYDQVVDRIKDRISKGDMPQGSALPPERQLIDELNVSRSSLREGFRILEMMGLIESIPGKGRFVRTSR")
-0.235
>>> value_reported("HMIISMKKGATPQEISHVRKLIEELGYKVHESQGSERMVFGAIGDERSKHRLTSLEAQPGVEKVIPILA")
0.191
>>> value_reported("HMKQENRLKILRKEKGLTQTKLANEIGVSKRTIIAWENDERQIKPDKAQQLADYFGVKEGYLLGYTNN")
0.132
>>> value_reported("HMSEQLVGTVGHITVGTARTASPAEAKFLDAFEQPHYLLVEPIEPKDIFQQGDKVVLVKKQHHSWLATRYI")
-0.267
>>> value_reported("HMRFEWFDTLTDREKEIFGLIATGFDNQQIADRLQLAEQTVRNNISTIYSKLEVKDRFEIIRLANTI")
-0.706
>>> value_reported("HMRIWTPEMIKEYIISSNGKEPLNSHYYSTNHPSIYAAAERIFGSWGNAINAAGLDYNAIRKYK")
-0.00482
>>> value_reported("HMAVEETFTITWLDRDGTVLEVDENVLKGTMPSFDGHIPPHDGLEFKGWDPEVVPVEGDATYTATYKA")
-0.176
>>> value_reported("HMAKIATTVYEQIRTAILNGELSNSERLVEEDLAVSMGISRTPVREALRRLAAEGLVDVSPNRGARVAE")
-0.293
>>> value_reported("HMYEENFSKIKNDISTIFKRHKISFTNNFISHLSSVFNTDSLTNKMELEKLDSFLINNKKVTENELLKFII")
-0.025
>>> value_reported("HMEEQELQLIQFPIASGSAWAGKAVRELILPPETLLVMLIRGTETMIPKGDTMVQEGDTAVLSASAYRDD")
-0.434
>>> value_reported("HMNSEAVQNVIDKISALPDDITAKAKSQIEEARAAYEALSDSEKARVTNYSTLVAAEKKLASVVKD")
0.325
>>> value_reported("HMKSLAQELVDALGDRIRDGRLKVGDKLPSEAAIEAQYGVSRTVVREAISRLQAAGLVVTRHGIGTFIVGI")
-0.804
>>> value_reported("HMVSRVTTPGVVGKTWQETKQILKQADLTVGSLTRDGKDVTPADGDLVTAQNPSAGQAIVRGSSVDLTFDK")
0.31
>>> value_reported("HMDDKVGKVFNYVQEKILTGEWDIGDKITPEISLSKELGVSRSVVREAIKKFVALNILSRTQGGGTYVNNL")
-0.515
>>> value_reported("HMFMSDDDIRILVKEWLQSQNRKSYQLAEEIGIRPQTFYAQMSVRKISANTKKALSRIIPGL")
-0.86
>>> value_reported("HMHSEEAALLHRYIDSLEEPQHTVVVMRDIGGYSFEEIASVVQLKEAHIWMILSRARRKLRELYIKTMDHH")
0.138
>>> value_reported("HMDIKEIIKNRRIELGLTLKEVATAVGVSEGTVSRWESGNITNMKRNKIAALAKTLQIPPTTI")
-0.259
>>> value_reported("HMRLSVRQRMSDVLGALKTQAFVEFTQLFRPQEGRMGVTVTFSAILELLREGLIEIVQSEPFAPIHVRAGA")
-0.0036
>>> value_reported("HMNLTSNDAYSRILNAIITSELRPGDTVTEIQLAQKFGFGRTPVREAIMRLENEGFIVSAERKKRVYIL")
-2
>>> value_reported("HMKKYFPPKSRFNPNKYLLKDWMALGLSEKQSQSILNFIQRGIYSNSALEKIYVMPEEVFTLIKDSTYYEE")
-1.34
>>> value_reported("HMDYKSKLQELVQTEKRTVEYKLVDESGPAHNKSFTFEVVISGIKYGSGTGASKKIAEQNAAKEALEKLA")
-0.0871
>>> value_reported("HMHSFGLHVRNLRKKSNLTLSQLSNASGLSLSAISKIENNQISPSFINLIRLAEGLKMHIADLVTVK")
-2.13
>>> value_reported("HMKKYEIIFNDLKQSIVNGKYSNEERLPPEETLAKKYQTSRVPVQQALNALVGIGMVKRIAGSGTYVTY")
-0.628
>>> value_reported("HMSKDKEKRTREHVLGILKKYDKVMTDKAFTVFKKMIKDESILEMELIKLINFIGERKEIRSKDVLAVVTE")
0.281
>>> value_reported("HMASSRPLAEGDFVRLRAGGATGRIESIKGQKATVQMGGLKVHAPLRDLLPVAEPIKQVSTASNT")
0.0407
>>> value_reported("HMPKTLTEAAYEDIKQWILEGEITPGSKISLEDTASRLEVSMTPIREALTKLQQEGLVEYIPRAGWRASK")
0.173
>>> value_reported("HMPVLDETVPAALDGERIDRVVALLADVSRNRAGIAIAAGSVRLDGAVVTQRSRKVRADEELVVDGLER")
-0.015
>>> value_reported("HMAVTFPYTAYATDAVRLRERPSSSADVLAVIRKGDAVLVTGTDGNYAIVDYEGKRGYVVSSFIAT")
-0.317
>>> value_reported("HMFGDQMQSYLSRLSQIDVDIIALKYGDNFTYREIGLILEMSEDSVRQRAVRARKKLETMIQKG")
-3.1
>>> value_reported("HMVELGMSQNEFIQKFGKPFNKEMAYTYDKHKRETLFYKEDLYRGSWFIVTTAFTFVDSKLVSQEIVREER")
-3.41
>>> value_reported("HMGGASVTDQQIRDFVSAHTDDPMAIYKAAVANGISSARLAQVTGISIADIEAFVRKNNLPSF")
0.0932

====

# EXPERIMENT: soluble fraction after stress (log2 fold change); higher = more stays soluble; pooled small domains, quantitative proteomics
# TEST_SETTINGS: stress: 50 degC
QUANTITY: soluble fraction (log2)

>>> value_reported("HMKALDTVLSEIPGLGPVRIKQLLKVFGSVDAIRKASLQDLQQIEGIGPKLAQTIYEYFHQP")
"≥ 0.62"
>>> value_reported("HMADEEEIMVPQVVGKTYDEAKSELENAGFKVEKNEKTSDKASGTVISQSINGGAKKGTSVTLTVSKGN")
0.149
>>> value_reported("HMNDSGIIGVVINDHEKYEGHVLEDGFISSSLSALSREIDVAGYFMMVKTVVYEGFFQELKGIGNV")
-0.00726
>>> value_reported("HMNKSEFLNELEKRIRVLEKNEIKDILAEYSQHIDMRMGSGLSEAEAIKDFGDMDDLAAEILEAY")
0.08
>>> value_reported("HMEAFDYLGRRTRDLLERQGWTTVPLVRDAYLAVPGGERLLQVPGFGRKSLREVRRWLWLQIGDPRFE")
-1.36
>>> value_reported("HMFPELTDDEQLIVSTLAKTNDMQINMLAVRTGIPVQRMSALLFSLEMKGVVKMYAGGTYHLL")
-1.05
>>> value_reported("HMGLQLTPVRRRVLEILLHEHRALGAYDILDKLRSEGLGSQPPVAYRALDFLVTHGFAHKIERLNAF")
-0.609
>>> value_reported("HMIQTMVVTDLKNGTIFKENGHPFIVLKYEHIKVSRGSAQVRVKMKNLITGQVLEKSWQSTAHVDDT")
-2.1
>>> value_reported("HMTLPGQDFIRASQLKELIAKYDKQYYEEGVSDISDAEYDRLYEEYLEFENKYPELKDMADAPTKRV")
0.332
>>> value_reported("HMSNEYLMPNLIGMSWDEAKSKYSQYMTLVPEQEWSEVTKDQIFDQEYPEGRKVKIGTEVTVKVSMGI")
-0.192
>>> value_reported("HMKQQAYEQGKAAYQSGDWLRAVTQLGQVKEAGEKNGEVDHLLGNAYMKLGQFESAAYAYNSALEDVA")
0.269
>>> value_reported("HMSAPVFRITPAGVVVNGLKRSDILTLTRIDGAMNTLPHNAGEVLVSTEGLAKGVYVITAGGKSLKFLV")
-1.36
>>> value_reported("HMSLIHEQSLKEIRIFINNLPESLRTAFTLREQDGLSYEEISKITDTPIGTVRSRIFRARESILEHINEEL")
-1.89
>>> value_reported("HMVMRHTVEHDAELLAVLRLMYPASSSTKLRKMLTQGRVLVNDDVVHRAKHGVASGDTVDVIVRQRAE")
-1.03
>>> value_reported("HMLFKGDTREENVILEFLSKNGTTSSDAIIKQTGLSASEFNQAITMLELKGLALNNGGEKWSL")
-0.0779
>>> value_reported("HMSGSPREQAESEYRKAIAAVNQGRVSEATESLRAALRLDAFQVAARQLLVKLLLEAKNQDEAIQVLR")
-0.463
>>> value_reported("HMARLQEVVVRVPVEDGQTLAAIYREAEVIERADEGTGVLLTVRIPAPLLGRLRRLEGVHVQP")
-0.125
